# maps each entry to its percent of parent
B1: SmBiT-MYC 1-190 [human] / TRRAP 2033-2283-LgBiT [not stated] (parent complex)
chain 1: MPLNVSFTNRNYDLDYDSVQPYFYCDEEENFYQQQQQSELQPPAPSEDIWKKFELLPTPPLSPSRRSGLCSPSYVAVTPFSLRGDNDGGGGSFSTADQLEMVTELLGGDMVNQSFICDPDDETFIKNIIIQDCMWSGFSAAAKLVSEKLASYQAARKDSGSPNPARGHSVCSTSSLYLQDLSAAASECID
chain 2: NSSGEGVNSVSSSIKRGLSVDSAQEVKRFRTATGAISAVFGRSQSLPGADSLLAKPIDKQHTDTVVNFLIRVACQVNDNTNTAGSPGEVLSRRCVNLLKTALRPDMWPKSELKLQWFDKLLMTVEQPNQVNYGNICTGLEVLSFLLTVLQSPAILSSFKPLQRGIAACMTCGNTKVLRAVHSLLSRLMSIFPTEPSTSSVASKYEELECLYAAVGKVIYEGLTNYEKATNANPSQLFGTLMILKSACSNNP

# Variants of: B1
# protocolDescription: luminescence complementation (NanoBiT) in transfected cells; normalized for MYC expression level; parent: 100; read off a plot
property: percent of parent

{"columns": ["mutationNotation", "observedValue"],
 "data": [
  ["chain 1 M134A", "~43 % RLU to WT"],
  ["chain 1 T58I", "~102 % RLU to WT"],
  ["chain 1 S136A", "~77 % RLU to WT"]
]}
